Experiment: Critical micelle concentration of the compound
Assay type: physicochemical
observation-type: CMC (µM)
Numbers only, in µM.

Record excerpt, results attached:
>>> reported_value("CCCCCCCCCCC(N)C(=O)N(O)CCC[N+](C)(C)C.Cl.[Cl-] (stereo not given)")
97
>>> reported_value("CCCCCCC(N)C(=O)N(CCCN(C)C)OCc1ccccc1.Cl.Cl (stereo not given)")
158
>>> reported_value("CCCCCCCCCCC(N)C(=O)N(CCCN(C)C)OCc1ccccc1.Cl.Cl (stereo not given)")
8

Could you now consider this next compound?
Req: Could you tell me which CMC is on file for CCCCCCCCCCCCCCCCCCC(N)C(=O)N(CC[N+](C)(C)C)OCc1ccccc1.Cl.[Cl-] (stereo not given) ?
Resp: 10

====

Experiment: Critical micelle concentration of the compound
Format: physicochemical
Please go through the items and note down their CMC.
Answers are plain numbers, in µM.

>>> reported_value("CCCCCCCCCCC(N)C(=O)N(O)CCCN(C)C.Cl.Cl (centres undefined)")
79
>>> reported_value("CCCCCCC(NC(=O)OC(C)(C)C)C(=O)N(CCC[N+](C)(C)C)OCc1ccccc1.[I-] (centres undefined)")
221
>>> reported_value("CCCCCCCCCCC(NC(=O)OC(C)(C)C)C(=O)N(CCCN(C)C)OCc1ccccc1 (centres undefined)")
10

# context switch: different compound, same CMC
Req: What does the data say about its CMC? Entry: CCCCCCCCCCC(NC(=O)OC(C)(C)C)C(=O)N(CCC[N+](C)(C)C)OCc1ccccc1.[I-] (centres undefined)
Resp: 40

====

Please provide measured CC50 at 24 h for the entries that follow.
Experiment: Cytotoxicity against human A549 cells after 24 hrs by MTT assay
Format: cell-based
Conditions: read-out: LD50
Numbers only, in µM.

>>> reported_value("CCCCCCC(NC(=O)OC(C)(C)C)C(=O)N(CCCN(C)C)OCc1ccccc1 (centres undefined)")
21
>>> reported_value("CCCCCCCCCCC(N)C(=O)N(CCC[N+](C)(C)C)OCc1ccccc1.Cl.[Cl-] (centres undefined)")
43.4
>>> reported_value("CCCCCCCCCCC(N)C(=O)N(O)CCCN(C)C.Cl.Cl (centres undefined)")
40
>>> reported_value("CCCCCCCCCCCCCCCCCCC(N)C(=O)N(CC[N+](C)(C)C)OCc1ccccc1.Cl.[Cl-] (centres undefined)")
29
>>> reported_value("CCCCCCCCCCC(N)C(=O)N(CCCN(C)C)OCc1ccccc1.Cl.Cl (centres undefined)")
7

// for each compound below, give its CC50 at 24 h
1. CCCCCCCCCCC(N)C(=O)N(CC[N+](C)(C)C)OCc1ccccc1.Cl.[Cl-] (centres undefined)
2. CCCCCCCCCCCCCCCCCCC(NC(=O)OC(C)(C)C)C(=O)N(CC[N+](C)(C)C)OCc1ccccc1.[I-] (centres undefined)
3. CCCCCCCCCCC(NC(=O)OC(C)(C)C)C(=O)N(CC[N+](C)(C)C)OCc1ccccc1.[I-] (centres undefined)

Resp:
[76.1, 25.1, 28.2]

====

Target: Phospholipase C (Bacillus cereus, UniProt P09598)
Sequence (P09598 whole entry): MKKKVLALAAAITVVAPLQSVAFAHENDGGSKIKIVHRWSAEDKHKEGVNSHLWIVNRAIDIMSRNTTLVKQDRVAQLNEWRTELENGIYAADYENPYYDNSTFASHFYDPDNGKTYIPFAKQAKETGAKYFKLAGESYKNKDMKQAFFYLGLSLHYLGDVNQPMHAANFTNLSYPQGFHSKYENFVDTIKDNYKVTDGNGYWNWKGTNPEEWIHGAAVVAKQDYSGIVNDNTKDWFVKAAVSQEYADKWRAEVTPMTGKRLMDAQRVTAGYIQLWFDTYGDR
Experiment: Non-competitive inhibition of Bacillus cereus phosphatidylcholine preferred phospholipase C by Dixon plot analysis
observation-type: Ki (µM)
Numbers only, in µM.

Req: # get_value(readout='Ki', item= CCCCCCCCCCC(NC(=O)OC(C)(C)C)C(=O)N(CCCN(C)C)OCc1ccccc1 (stereo unspecified) )
Resp: 2.5

From: ChEMBL document CHEMBL1287788
